Biological target: UniProt P08575
Sequence (P08575 26-1306): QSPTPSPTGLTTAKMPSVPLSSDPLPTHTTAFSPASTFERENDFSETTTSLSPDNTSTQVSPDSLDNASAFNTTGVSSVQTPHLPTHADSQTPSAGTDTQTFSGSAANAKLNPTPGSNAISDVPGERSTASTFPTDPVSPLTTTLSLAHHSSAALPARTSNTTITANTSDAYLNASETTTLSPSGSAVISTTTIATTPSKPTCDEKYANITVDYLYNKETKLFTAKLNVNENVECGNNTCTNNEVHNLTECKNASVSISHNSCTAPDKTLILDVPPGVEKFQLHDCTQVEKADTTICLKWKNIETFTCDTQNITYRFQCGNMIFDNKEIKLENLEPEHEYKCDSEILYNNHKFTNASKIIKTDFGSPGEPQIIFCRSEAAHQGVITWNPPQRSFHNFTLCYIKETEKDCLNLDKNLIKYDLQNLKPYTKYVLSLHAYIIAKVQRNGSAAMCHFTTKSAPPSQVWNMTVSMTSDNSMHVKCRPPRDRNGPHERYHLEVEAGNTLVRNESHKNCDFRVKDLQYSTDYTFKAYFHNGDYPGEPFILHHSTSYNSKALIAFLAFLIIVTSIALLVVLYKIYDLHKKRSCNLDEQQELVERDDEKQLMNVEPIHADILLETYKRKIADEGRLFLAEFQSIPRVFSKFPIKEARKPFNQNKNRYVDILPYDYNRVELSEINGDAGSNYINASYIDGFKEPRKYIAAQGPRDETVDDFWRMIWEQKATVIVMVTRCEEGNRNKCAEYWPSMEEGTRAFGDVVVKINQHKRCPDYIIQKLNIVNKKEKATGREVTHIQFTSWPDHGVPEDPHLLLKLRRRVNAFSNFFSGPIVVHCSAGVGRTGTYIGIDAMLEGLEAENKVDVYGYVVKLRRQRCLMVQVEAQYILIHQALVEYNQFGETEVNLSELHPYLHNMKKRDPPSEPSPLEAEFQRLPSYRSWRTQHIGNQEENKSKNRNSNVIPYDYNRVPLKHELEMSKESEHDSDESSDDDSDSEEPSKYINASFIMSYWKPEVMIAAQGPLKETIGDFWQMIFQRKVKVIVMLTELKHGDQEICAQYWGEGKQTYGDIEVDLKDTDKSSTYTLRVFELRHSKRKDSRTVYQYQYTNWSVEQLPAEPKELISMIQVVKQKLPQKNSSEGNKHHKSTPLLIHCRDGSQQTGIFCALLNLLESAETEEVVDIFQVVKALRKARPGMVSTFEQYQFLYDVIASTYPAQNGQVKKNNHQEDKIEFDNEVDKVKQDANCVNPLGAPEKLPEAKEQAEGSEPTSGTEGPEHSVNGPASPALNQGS

{"columns": ["Compound", "Ki"],
 "data": [
  ["CCc1ccc(C(=O)NCCCC[C@H](NC(=O)[C@H](Cc2ccc(C(F)(F)P(=O)(O)O)cc2)NC(=O)[C@H](Cc2ccccc2)NC(=O)CO[C@H]2C[C@@H](C)CC[C@@H]2C(C)C)C(N)=O)cc1 [Compound 8]", "> 1000 nM"]
]}

Attribution: paper PMC2741613
